# reported pIC50; entries follow
Molecular target: Recombinant ROCK2 (amino acids 5-554) (Homo sapiens)
Construct: ROCK2 (amino acids 5-554); by word order, ROCK2 from SignalChem
Sequence (O75116 5-554): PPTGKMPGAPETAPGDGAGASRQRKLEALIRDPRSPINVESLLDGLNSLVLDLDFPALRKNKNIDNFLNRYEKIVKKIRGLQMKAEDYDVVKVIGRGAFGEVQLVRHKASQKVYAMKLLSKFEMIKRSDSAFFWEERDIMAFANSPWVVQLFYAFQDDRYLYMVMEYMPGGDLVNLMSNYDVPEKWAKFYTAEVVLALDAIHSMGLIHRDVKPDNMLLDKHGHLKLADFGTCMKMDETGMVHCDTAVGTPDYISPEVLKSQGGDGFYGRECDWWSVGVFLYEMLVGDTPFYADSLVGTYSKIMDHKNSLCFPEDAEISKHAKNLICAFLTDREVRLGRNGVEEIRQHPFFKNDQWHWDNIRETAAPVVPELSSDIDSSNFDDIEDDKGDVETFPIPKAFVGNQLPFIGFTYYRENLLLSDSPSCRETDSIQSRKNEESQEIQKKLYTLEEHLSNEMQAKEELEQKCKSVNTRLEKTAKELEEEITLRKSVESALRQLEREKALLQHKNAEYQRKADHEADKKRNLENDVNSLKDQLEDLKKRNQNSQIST
Test: ROCK inhibition assay, LANCE Ultra TR-FRET kinase assay (ROCK2)
Details: 4 μM ATP, 50 nM ULight-CREBtide substrate
Description: Kinase IC50 was determined through an in vitro assay based on LANCE Ultra TR-FRET (Time-Resolved Fluorescence Resonance Energy Transfer) homogeneous technologies method (Perkin Elmer). […] Compound activities were measured by Envision and IC50s were calculated. […] The reaction was incubated for 1 hour, and the signal was read in Envision in TR-FRET mode (excitation at 320 nm and emission at 615/665 nm). […]
pIC50: −log10 of the molar value.

Below are worked cases with known answers.
Would you kindly share the measured pIC50 for CN1CCC(CNC(=O)c2cc(F)cc(Cn3ccc4cc(-c5c[nH]nc5C(F)F)ncc4c3=O)c2)CC1 [Compound 274] ?
> 8.00

Would you kindly share the measured pIC50 for CNC(=O)c1cccc(Cn2ccc3cc(-c4cnoc4C)ccc3c2=O)c1 [Compound 301] ?
< 6.30

Would you kindly share the measured pIC50 for [2H]C([2H])([2H])NC(=O)c1cccc(Cn2ccc3cc(-c4cc[nH]c4C)ncc3c2=O)c1 [Compound 232] ?
> 8.00

Would you kindly share the measured pIC50 for CC(C)N1CCC(CNC(=O)c2cc(F)cc(Cn3ccc4cc(N5CCOCC5)ccc4c3=O)c2)CC1 [Compound 224] ?
7.00 to 8.00

# input for lookup
Would you kindly share the measured pIC50 for CN1CCN(CCNC(=O)c2cc(F)cc(Cn3ccc4cc(-c5ccnn5C)ncc4c3=O)c2)CC1 [Compound 268] ?
> 8.00
